# Tested on: RPMI-8226 leukemia
# assayName: NCI tumour cell line growth inhibition, 48 h

molecule | qual | TGI, µM
Cc1cc(Nc2cc(CN3CCOCC3)c3nc(C)c(Cc4ccc(Cl)cc4F)n3n2)n[nH]1 | = | 14.8
C=C1C(=O)CCC1C(=O)O (centres undefined) | > | 100
Clc1nc(Cl)c2ncn(C/C=C/Cn3cnc4c(Cl)nc(Cl)nc43)c2n1 | = | 25.8
COc1cccc(CCn2c(N)c(C(=O)O)c3ccc([N+](=O)[O-])cc3c2=O)c1 | > | 100
COc1ccc(/C=N/NC(=O)c2ccccc2Nc2ccccc2C(=O)N/N=C/c2ccc(OC)cc2)cc1 | > | 100
COc1ccc([C@@H]2CC(=O)NCCCNCCCCNCCCN2)cc1 | > | 100
CC(=O)OCC1OC(O[C@@H]2C[C@H]3C(C)(C)[C@H](OC(C)=O)CC[C@]3(C)[C@H]3CC[C@]4(C)C(=CC[C@H]4[C@@H](C)C[C@@H](O)[C@H](O)C(C)(C)O)[C@@]32C)C(O)C(O)C1O (some centres undefined) | = | 30.2
FC(F)(F)c1[nH]ncc1-c1nc2c(N3CCCCC3)cc3[nH]ncc3c2c2c1CCCC2 | = | 2.44
c1ccc(CCCNc2nnnc3ccccc23)cc1 | > | 100

----------
# Test system: SF-295 CNS
# assayName: NCI tumour cell line growth inhibition, 48 h
observedProperty: TGI (µM)

compound | unitLabel | qual | quantitativeReadout
CC(=O)OCC1OC(O[C@@H]2C[C@H]3C(C)(C)[C@H](OC(C)=O)CC[C@]3(C)[C@H]3CC[C@]4(C)C(=CC[C@H]4[C@@H](C)C[C@@H](O)[C@H](O)C(C)(C)O)[C@@]32C)C(O)C(O)C1O (some centres undefined) | µM | = | 33
Cc1cc(O)c(C2=NN(c3ccc(S(N)(=O)=O)cc3)C(c3ccccc3O)C2)cc1Cl (centres undefined) | µM | = | 3.5
C=CCOc1ccc(C2(c3ccc(OCC=C)cc3)C(=O)Nc3ccccc32)cc1 | µM | > | 10
CCCCCCCC/C=C\CCCCCCCC(=O)OC[C@]1(CO)CCC(=O)O1 | µM | > | 100

----------
# Tested on: MALME-3M melanoma
# assayName: NCI tumour cell line growth inhibition, 48 h; in the data active means GI50 below about 0.43 µM; inactive means the rest
Labels: yes = active, no = inactive

molecule | targetOrSystem | classAssignment
C[n+]1c2cc(N)ccc2cc2ccc(N)cc21 (tested in a mixture with another compound) | MALME-3M melanoma | yes
COc1ccc(S(=O)(=O)NC2=NCCN2C(=S)SN2CCn3c2nsc3=S)cc1OC | MALME-3M melanoma | no
COc1cccc2c1C(=O)c1c(O)c3c(c(O)c1C2=O)C[C@@](O)(C(=O)CO)C[C@@H]3OC1CC(OC(C)=O)C(OC(C)=O)C(C)O1 (stereo partly specified) | MALME-3M melanoma | no
Cc1cc(S(N)(=O)=O)c(S/C(=N\Nc2ccc([N+](=O)[O-])cc2)c2ccc(O)cc2)cc1Cl | MALME-3M melanoma | no
COc1ccc(C2=CC(c3ccc(Oc4ccnc5cc(Cl)ccc45)c(OC)c3)c3c(nc(OC)[nH]c3=O)N2)cc1 (stereo unspecified) | MALME-3M melanoma | no
COc1cc2cn3c4ccc(O)cc4nc(N)c3c2cc1OC | MALME-3M melanoma | no
O=C(Nc1ccc(Cl)cc1F)c1cc(F)ccc1O | MALME-3M melanoma | yes
COc1cc[c]([Sb]([Br])([CH]=C(C)C)([CH]=C(C)C)[CH]=C(C)C)cc1 | MALME-3M melanoma | no
Cc1cc(C(=O)N[C@@H](CCC(=O)O)C(=O)O)sc1CC[C@@H]1CNc2nc(N)[nH]c(=O)c2C1 | MALME-3M melanoma | yes
COc1ccc2c(O)c(/C=C3\N=Nc4ncccc43)oc2c1C[C@H]1CCNC[C@H]1F | MALME-3M melanoma | no
COc1ccc2c(c1)CC[C@@H]1[C@@H]2CC[C@]2(C)c3[nH]ncc3C[C@@H]12 | MALME-3M melanoma | no
COc1cc(/C=C2\CCCC3C2=Nc2ccccc2NC3c2cc(OC)c(OC)c(OC)c2)cc(OC)c1OC (stereo unspecified) | MALME-3M melanoma | no
COc1cc(-c2nc3ccccc3[nH]2)ccc1OCC(=O)N=Nc1c(O)[nH]c2ccc(Cl)cc12 | MALME-3M melanoma | no
COc1nc2c(cc1S(=O)(=O)c1ccccc1)CCc1c-2cnn1Cc1ccccc1 | MALME-3M melanoma | no
Cc1cc(Nc2cc(CN3CCOCC3)c3nc(C)c(Cc4ccc(Cl)cc4F)n3n2)n[nH]1 | MALME-3M melanoma | no
COc1cccc2c1nc1cccc(OC)c1[n+]2[O-] | MALME-3M melanoma | no
